targetOrSystem: Proteinase-activated receptor 1 (Homo sapiens)
testSummary: Antagonist activity at PAR1 expressed in CHO cells assessed as inhibition of SFLLR-NH2-induced calcium release at 10 uM by FLIPR assay
Type: functional, cell-based
Consider the following molecules; for each one, report its inhibition.
Report the figure in % without appending any unit label.

The reported inhibition of the molecule O=C(C1=Cc2ccccc2OC1)N1CCN(Cc2ccc(F)cc2)CC1 was 16

The reported inhibition of the molecule Cn1c(C(=O)N2CCN(Cc3ccccc3)CC2)cc2ccccc21 was 11

The reported inhibition of the molecule O=C(/C=C\c1ccccc1Cl)N1CCC(N(Cc2ccc(F)cc2)Cc2ccccn2)C(F)C1 (stereo not given) was 23

The reported inhibition of the molecule O=c1c(/C=C/c2ccccc2Cl)c(N2CCN(Cc3ccccc3)CC2)c1=O was 85

The reported inhibition of the molecule Cc1cccc(-c2ccc(C(=O)/C=C/c3c(F)cccc3F)nc2)c1C was 40

---

targetOrSystem: Proteinase-activated receptor 1 (Homo sapiens)
testSummary: Antagonist activity at PAR1 expressed in CHO cells assessed as inhibition of SFLLR-NH2-induced calcium release at 10 uM by FLIPR assay
Assay type: functional, cell-based
Consider the following compounds; for each one, report its inhibition.
Report the figure in % without appending any unit label.

The reported inhibition of the compound O=C(/C=C/c1c(F)cccc1F)c1ccc(N2CCCC2)nc1 was 20

The reported inhibition of the compound N#Cc1ccccc1/C=C/C(=O)c1ccc(NC2CCCC2)nc1 was 84

The reported inhibition of the compound O=C(c1cc2ccccc2o1)N1CCN(Cc2ccccc2)CC1 was 1

The reported inhibition of the compound O=c1c(/C=C/c2ccccc2Cl)c(N2CCN(Cc3ccsc3)CC2)c1=O was 27

The reported inhibition of the compound O=C(/C=C/c1ccccc1Cl)c1ccc(N2CC=CC2)cn1 was 13

The reported inhibition of the compound O=C(/C=C/c1ccccc1Cl)N1CCN(Cc2ccc(F)cc2)CC1 was 93

The reported inhibition of the compound O=C(/C=C\c1c(F)cccc1F)N1CCC(NCc2ccc(F)cc2)C(F)C1 (stereo not given) was 25

The reported inhibition of the compound N#Cc1ccccc1/C=C\C(=O)N1CCC(N(Cc2ccc(F)cc2)Cc2ccccn2)C(F)C1 (stereo not given) was 68

The reported inhibition of the compound O=c1c(/C=C/c2ccccc2Cl)c(N2CCN(CC3CCCCC3)CC2)c1=O was 41

The reported inhibition of the compound O=C(/C=C/c1c(F)cccc1F)c1ccc(NC2CCCCC2)nc1 was 41

---

targetOrSystem: Proteinase-activated receptor 1 (Homo sapiens)
testSummary: Antagonist activity at PAR1 expressed in CHO cells assessed as inhibition of SFLLR-NH2-induced calcium release at 10 uM by FLIPR assay
Type: functional, cell-based
Consider the following molecules; for each one, report its inhibition.
Report the figure in % without appending any unit label.

The reported inhibition of the molecule O=C(c1cc2c(F)cccc2s1)N1CCN(Cc2ccccc2)CC1 was 4

The reported inhibition of the molecule O=C(/C=C/c1ccccc1Cl)c1ccc(NC2CCCC2)nc1 was 11

The reported inhibition of the molecule Cc1cccc(-c2ccc(C(=O)/C=C/c3c(F)cccc3F)cn2)c1C was 74

The reported inhibition of the molecule N#Cc1ccccc1/C=C/C(=O)c1ccc(NC2CCCCC2)nc1 was 53

The reported inhibition of the molecule O=C(/C=C/c1ccccc1Cl)c1ccc(NC2CCCCC2)nc1 was 97

The reported inhibition of the molecule N#Cc1ccccc1/C=C/c1c(N2CCN(CC3CCCCC3)CC2)c(=O)c1=O was 84

---

targetOrSystem: Proteinase-activated receptor 1 (Homo sapiens) (UniProt P25116)
testSummary: Antagonist activity at PAR1 expressed in CHO cells assessed as inhibition of SFLLR-NH2-induced calcium release at 10 uM by FLIPR assay
Format: functional, cell-based
observationType: inhibition (%)
Report the figure in % without appending any unit label.

The reported inhibition of the molecule O=c1c(/C=C/c2ccccc2Cl)c(N2CCN(Cc3ccc(F)cc3)CC2)c1=O was 23

The reported inhibition of the molecule N#Cc1ccccc1/C=C/C(=O)N1CCC(N(Cc2ccc(F)cc2)Cc2ccccn2)C(F)C1 (stereo not given) was 33

The reported inhibition of the molecule N#Cc1ccccc1/C=C\C(=O)N1CCC(NCc2ccc(F)cc2)C(F)C1 (stereo not given) was 40

The reported inhibition of the molecule N#Cc1ccccc1/C=C/C(=O)c1ccc(N2CC=CC2)cn1 was 52

The reported inhibition of the molecule O=C(/C=C/c1c(F)cccc1F)N1CCC(NCc2ccc(F)cc2)CC1 was 0

The reported inhibition of the molecule O=C(/C=C\c1ccccc1Cl)N1CCC(Nc2ccc(F)cc2)C(F)C1 (stereo not given) was 85

The reported inhibition of the molecule O=C(c1cc2ccccc2[nH]1)N1CCN(Cc2ccccc2)CC1 was 2

The reported inhibition of the molecule O=C(/C=C/c1c(F)cccc1F)c1ccc(N2CC=CC2)cn1 was 60

The reported inhibition of the molecule N#Cc1ccccc1/C=C/c1c(N2CCN(Cc3ccsc3)CC2)c(=O)c1=O was 97

The reported inhibition of the molecule Cc1cccc(-c2ccc(C(=O)/C=C/c3ccccc3Cl)cn2)c1C was 32

---

targetOrSystem: Proteinase-activated receptor 1 (Homo sapiens, UniProt P25116)
Sequence (P25116 whole entry): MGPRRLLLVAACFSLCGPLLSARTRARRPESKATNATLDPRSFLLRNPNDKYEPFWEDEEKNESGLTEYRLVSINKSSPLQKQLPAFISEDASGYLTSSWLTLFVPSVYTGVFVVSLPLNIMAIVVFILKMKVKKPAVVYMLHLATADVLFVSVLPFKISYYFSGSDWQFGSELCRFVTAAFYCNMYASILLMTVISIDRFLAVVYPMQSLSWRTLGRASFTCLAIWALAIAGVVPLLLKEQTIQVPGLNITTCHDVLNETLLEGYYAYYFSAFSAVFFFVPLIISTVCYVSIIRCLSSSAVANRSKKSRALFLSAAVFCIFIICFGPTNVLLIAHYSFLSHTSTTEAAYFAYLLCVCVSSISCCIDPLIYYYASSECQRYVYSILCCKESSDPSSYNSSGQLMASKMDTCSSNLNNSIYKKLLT
testSummary: Antagonist activity at PAR1 expressed in CHO cells assessed as inhibition of SFLLR-NH2-induced calcium release by FLIPR assay
Assay type: functional, cell-based
measurementSetup: read-out: pA2 (converted)
Consider the following compounds; for each one, report its Kb.
Report the figure in nM without appending any unit label.

# N#Cc1ccccc1/C=C/c1c(N2CCN(Cc3ccsc3)CC2)c(=O)c1=O with Proteinase-activated receptor 1 (Homo sapiens, UniProt P25116): Kb is 389

# O=C(/C=C\c1ccccc1Cl)N1CCC(Nc2ccc(F)cc2)C(F)C1 (stereo unspecified) with Proteinase-activated receptor 1 (Homo sapiens, UniProt P25116): Kb is 389

# N#Cc1ccccc1/C=C/C(=O)c1ccc(NC2CCCC2)nc1 with Proteinase-activated receptor 1 (Homo sapiens, UniProt P25116): Kb is 933

# O=C(/C=C/c1ccccc1Cl)N1CCN(Cc2ccc(F)cc2)CC1 with Proteinase-activated receptor 1 (Homo sapiens, UniProt P25116): Kb is 380

# N#Cc1ccccc1/C=C\C(=O)N1CCC(N(Cc2ccc(F)cc2)Cc2ccccn2)C(F)C1 (stereo unspecified) with Proteinase-activated receptor 1 (Homo sapiens, UniProt P25116): Kb is 589

# N#Cc1ccccc1/C=C/c1c(N2CCN(CC3CCCCC3)CC2)c(=O)c1=O with Proteinase-activated receptor 1 (Homo sapiens, UniProt P25116): Kb is 427
